Target: T1, RAB33B wild type, 6xHis, labeled with Tide Fluor 3 (human, UniProt Q9H082 1-229, labeled with Tide Fluor 3 (TF3) maleimide)
T1 construct: RAB33B, human; Loaded with GppNHp or GDP by nucleotide exchange; The crystal construct is 30–218; also called WT^GppNHp; WT^GDP
T1 sequence (looked up): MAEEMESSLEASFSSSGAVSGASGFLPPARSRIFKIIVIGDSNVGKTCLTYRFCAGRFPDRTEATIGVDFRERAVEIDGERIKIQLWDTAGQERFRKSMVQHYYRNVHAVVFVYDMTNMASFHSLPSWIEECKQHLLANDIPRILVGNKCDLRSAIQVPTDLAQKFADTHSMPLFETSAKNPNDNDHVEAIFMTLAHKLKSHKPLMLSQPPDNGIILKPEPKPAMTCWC
Experiment: MST; TF3-labeled RAB33B at 10 μM, GppNHp-bound; unlabeled ATG16L1(141–265) titrated from 400 μM to 12 nM; 20 mM HEPES pH 7.2, 25 mM NaCl, 2 mM DTE, 2 mM MgCl2, 0.05% Tween 20, 10 µM GppNHp
Details: both partners purified
metric_name: pKd
The meaning of pKd here: minus log10 of the concentration in molar units.

## Input Can you share its pKd? I mean this binder: ATG16L1(141–265) wild type, expressed separately (domain or fragment, UniProt Q8C0J2 141-265, looked up, pOPIN vector with GST tag; also called WT) LETNCLDLRTKLQDLEVANQTLKDEYDALQITFTALEEKLRKTTEENQELVTRWMAEKAQEANRLNAENEKDSRRRQARLQKELAEAAKEPLPVEQDDDIEVIVDETSDHTEETSPVRAVSRAAT
## Output 7.02

## Input Now give it for ATG16L1(141–265) N206A,N209A (domain or fragment, UniProt Q8C0J2 141-265, looked up) LETNCLDLRTKLQDLEVANQTLKDEYDALQITFTALEEKLRKTTEENQELVTRWMAEKAQEANRLAAEAEKDSRRRQARLQKELAEAAKEPLPVEQDDDIEVIVDETSDHTEETSPVRAVSRAAT too.
## Output 4.62

## Input Now give it for ATG16L1(141–265) N206A (domain or fragment, UniProt Q8C0J2 141-265, looked up) LETNCLDLRTKLQDLEVANQTLKDEYDALQITFTALEEKLRKTTEENQELVTRWMAEKAQEANRLAAENEKDSRRRQARLQKELAEAAKEPLPVEQDDDIEVIVDETSDHTEETSPVRAVSRAAT too.
## Output 5.47

## Input Now give it for ATG16L1(141–265) N209A (domain or fragment, UniProt Q8C0J2 141-265, looked up) LETNCLDLRTKLQDLEVANQTLKDEYDALQITFTALEEKLRKTTEENQELVTRWMAEKAQEANRLNAEAEKDSRRRQARLQKELAEAAKEPLPVEQDDDIEVIVDETSDHTEETSPVRAVSRAAT too.
## Output 6.05
